Measured pIC50 of individual entries
- target: UniProtKB P40337
- assay-name: VHL fluorescence polarization (FP) competition assay
- Format: binding
- experimental-conditions: 10% in DMSO
pIC50: −log10 of the molar value.

{"columns": ["smiles-input", "pIC50"],
 "data": [
  ["Cc1ncsc1-c1ccc(CNC(=O)[C@@H]2C[C@@H](O)CN2C(=O)[C@H](c2cccs2)N2Cc3ccccc3C2=O)cc1", 4.58],
  ["CCc1ncsc1-c1ccc(CNC(=O)[C@@H]2C[C@@H](O)CN2C(=O)[C@H](C(C)C)N2Cc3ccccc3C2=O)cc1", 5.80],
  ["Cc1ncsc1-c1ccc(CNC(=O)[C@@H]2C[C@@H](O)CN2C(=O)[C@@H](NC(=O)CC2CCCCC2)C(C)(C)C)cc1", 5.78],
  ["Cc1ncsc1-c1ccc(CNC(=O)[C@@H]2C[C@@H](O)CN2C(=O)[C@H](C(C)C)N2Cc3ccc(F)cc3C2=O)cc1", 6.30],
  ["CC(C)[C@@H](C(=O)N1C[C@H](O)C[C@H]1C(=O)NCc1ccc(-c2scnc2C2CC2)cc1)N1Cc2ccccc2C1=O", 6.27],
  ["CSC[C@H](NC(=O)CCC(C)C)C(=O)N1C[C@H](O)C[C@H]1C(=O)NCc1ccc(-c2scnc2C)cc1", 5.08]
]}

---

- target: VHL (Homo sapiens (Human), UniProt P40337)
- assay-name: VHL fluorescence polarization (FP) competition assay
- Type: binding
- experimental-conditions: 0.25% in DMSO
pIC50: −log10 of the molar value.
Attribute: pIC50

{"columns": ["smiles-input", "target", "pIC50"],
 "data": [
  ["Cc1ncsc1-c1ccc(CNC(=O)[C@@H]2C[C@@H](O)CN2C(=O)[C@@H](NC(=O)c2ccccc2)C(C)(C)C)cc1", "VHL (Homo sapiens (Human), UniProt P40337)", 5.62],
  ["CC(C)[C@@H](C(=O)N1C[C@H](O)C[C@H]1C(=O)NCc1ccc(-c2scnc2C2CC2)cc1)N1Cc2ccccc2C1=O", "VHL (Homo sapiens (Human), UniProt P40337)", 5.54],
  ["Cc1ncsc1-c1ccc(CNC(=O)[C@@H]2C[C@@H](O)CN2C(=O)[C@H](C(C)C)N2Cc3c(Br)cccc3C2=O)cc1", "VHL (Homo sapiens (Human), UniProt P40337)", 5.53],
  ["Cc1ncsc1-c1ccc(CNC(=O)[C@@H]2C[C@@H](O)CN2C(=O)[C@H](C(C)C)N2Cc3cc(F)ccc3C2=O)cc1", "VHL (Homo sapiens (Human), UniProt P40337)", 5.53],
  ["Cc1ncsc1-c1ccc(CNC(=O)[C@@H]2C[C@@H](O)CN2C(=O)[C@H](C(C)C)N2Cc3ccccc3C2=O)cc1", "VHL (Homo sapiens (Human), UniProt P40337)", 5.20]
]}

---

- target: UniProtKB P40337
- assay-name: VHL fluorescence polarization (FP) competition assay
- Assay type: binding
- experimental-conditions: 1% in DMSO
test-readout: IC50 (nM)

{"columns": ["smiles-input", "target", "test-readout", "qualifier-operator", "observed-measurement"],
 "data": [
  ["COc1ccc(CNC(=O)[C@@H]2C[C@@H](O)CN2C(=O)[C@H](C(C)C)N2Cc3ccccc3C2=O)cc1", "UniProtKB P40337", "IC50", ">", 49000],
  ["CSC[C@H](NC(=O)CCC(C)C)C(=O)N1C[C@H](O)C[C@H]1C(=O)NCc1ccc(-c2scnc2C)cc1", "UniProtKB P40337", "IC50", "=", 6250],
  ["CC(C)[C@@H](C(=O)N1C[C@H](O)C[C@H]1C(=O)NCc1ccc(-c2scnc2Br)cc1)N1Cc2ccccc2C1=O", "UniProtKB P40337", "IC50", "=", 2380],
  ["CC(C)[C@@H](C(=O)N1C[C@H](O)C[C@H]1C(=O)NCc1ccc(Br)cc1)N1Cc2ccccc2C1=O", "UniProtKB P40337", "IC50", "=", 2510],
  ["Cc1ncsc1-c1ccc(CNC(=O)[C@@H]2C[C@@H](O)CN2C(=O)[C@@H](N2Cc3ccccc3C2=O)C(C)(C)C)cc1", "UniProtKB P40337", "IC50", "=", 631],
  ["Cc1ncsc1-c1ccc(CNC(=O)[C@@H]2C[C@@H](O)CN2C(=O)[C@H](C(C)C)N2Cc3ccc(Cl)cc3C2=O)cc1", "UniProtKB P40337", "IC50", "=", 450],
  ["CCCC(=O)N[C@H](C(=O)N1C[C@H](O)C[C@H]1C(=O)NCc1ccc(-c2scnc2C)cc1)C(C)(C)C", "UniProtKB P40337", "IC50", "=", 1340]
]}

---

- target: VHL (Homo sapiens (Human), UniProt P40337)
- assay-name: VHL fluorescence polarization (FP) competition assay
- Assay type: binding
- experimental-conditions: 1% in DMSO
# IC50 listing for each entry below
test-readout: IC50 (µM)

{"columns": ["molecule", "units-label", "qualifier-operator", "observed-measurement"],
 "data": [
  ["Cc1ncsc1-c1ccc(CNC[C@@H]2C[C@@H](O)CN2C(=O)[C@H](C(C)C)N2Cc3ccccc3C2=O)cc1", "µM", ">", 100],
  ["COc1ccc(CCC(=O)N[C@H](C(=O)N2C[C@H](O)C[C@H]2C(=O)NCc2ccc(-c3scnc3C)cc2)C(C)(C)C)cc1", "µM", "=", 0.169],
  ["CC(=O)NCC(=O)N1C[C@H](O)C[C@H]1C(=O)NCc1ccc(-c2scnc2C)cc1", "µM", "=", 151],
  ["COc1cccc(C(=O)N2C[C@H](O)C[C@H]2C(=O)NCc2ccc(-c3scnc3C)cc2)c1", "µM", "=", 58.4],
  ["Cc1ncsc1-c1ccc(CN/C(=N/C#N)[C@@H]2C[C@@H](O)CN2C(=O)[C@H](C(C)C)N2Cc3ccccc3C2=O)cc1", "µM", ">", 100],
  ["Cc1ncsc1-c1ccc(CNC(=O)[C@@H]2C[C@@H](O)CN2C(=O)[C@@H](NC(=O)CNC(=O)OC(C)(C)C)C(C)(C)C)cc1", "µM", "=", 1.11],
  ["CC(C)[C@@H](C(=O)N1C[C@H](O)C[C@H]1C(=O)NCc1ccc(-c2scnc2C(F)(F)F)cc1)N1Cc2ccccc2C1=O", "µM", "=", 7.75],
  ["CO/N=C(/NCc1ccc(-c2scnc2C)cc1)[C@@H]1C[C@@H](O)CN1C(=O)[C@H](C(C)C)N1Cc2ccccc2C1=O", "µM", "=", 15.5],
  ["Cc1ncsc1-c1ccc(CNC(=O)[C@@H]2C[C@@H](O)CN2C(=O)[C@@H](NC(=O)CCC(C)C)C2CCCCC2)cc1", "µM", "=", 0.878],
  ["Cc1ncsc1-c1ccc(CNC(=O)[C@@H]2C[C@@H](O)CN2C(=O)[C@H](C(C)C)N2Cc3c(F)cccc3C2=O)cc1", "µM", "=", 0.539],
  ["Cc1ncsc1-c1ccc([C@H](C)NC(=O)[C@@H]2C[C@@H](O)CN2C(=O)[C@H](C(C)C)N2Cc3ccccc3C2=O)cc1", "µM", "=", 0.699],
  ["Cc1ncsc1-c1ccc(CNC(=O)[C@@H]2C[C@@H](O)CN2C(=O)[C@@H](NC(=O)c2ccccc2)C(C)(C)C)cc1", "µM", "=", 0.905],
  ["CC(=O)NC(C(=O)N1C[C@H](O)C[C@H]1C(=O)NCc1ccc(-c2scnc2C)cc1)C(F)(F)F (some centres unmarked)", "µM", "=", 45.2],
  ["CC(C)[C@@H](C(=O)N1C[C@H](O)C[C@H]1C(=O)NCc1ccc(C2CCC2)cc1)N1Cc2ccccc2C1=O", "µM", "=", 47.3]
]}

---

Attribute: pIC50
- target: VHL (Homo sapiens (Human))
- assay-name: VHL fluorescence polarization (FP) competition assay
- Type: binding
- experimental-conditions: 1% in DMSO
pIC50: −log10 of the molar value.

{"columns": ["smiles-input", "pIC50"],
 "data": [
  ["CC(C)[C@@H](C(=O)N1C[C@](C)(O)C[C@H]1C(=O)O)N1Cc2ccccc2C1=O", "< 4.00"],
  ["Cc1ncsc1-c1ccc(CNC(=O)[C@@H]2C[C@@H](O)CN2C(=O)[C@H]([C@H](C)O)N2Cc3ccccc3C2=O)cc1", "~4.49"],
  ["CC[C@H](C)[C@H](NCCc1ccccc1)C(=O)N1C[C@H](O)C[C@H]1C(=O)NCc1ccc(-c2scnc2C)cc1", "< 5.00"],
  ["CC(C)[C@@H](C(=O)N1C[C@H](O)C[C@H]1C(=O)NCc1ccc(N2CCOCC2)cc1)N1Cc2ccccc2C1=O", "< 4.00"]
]}

Origin of measurements: patent US10730870B2
